Source of measurements: patent US11840551B2

- ASSAY_SYSTEM: ALPK1 (Homo sapiens)
- Sequence (Q96QP1 whole entry): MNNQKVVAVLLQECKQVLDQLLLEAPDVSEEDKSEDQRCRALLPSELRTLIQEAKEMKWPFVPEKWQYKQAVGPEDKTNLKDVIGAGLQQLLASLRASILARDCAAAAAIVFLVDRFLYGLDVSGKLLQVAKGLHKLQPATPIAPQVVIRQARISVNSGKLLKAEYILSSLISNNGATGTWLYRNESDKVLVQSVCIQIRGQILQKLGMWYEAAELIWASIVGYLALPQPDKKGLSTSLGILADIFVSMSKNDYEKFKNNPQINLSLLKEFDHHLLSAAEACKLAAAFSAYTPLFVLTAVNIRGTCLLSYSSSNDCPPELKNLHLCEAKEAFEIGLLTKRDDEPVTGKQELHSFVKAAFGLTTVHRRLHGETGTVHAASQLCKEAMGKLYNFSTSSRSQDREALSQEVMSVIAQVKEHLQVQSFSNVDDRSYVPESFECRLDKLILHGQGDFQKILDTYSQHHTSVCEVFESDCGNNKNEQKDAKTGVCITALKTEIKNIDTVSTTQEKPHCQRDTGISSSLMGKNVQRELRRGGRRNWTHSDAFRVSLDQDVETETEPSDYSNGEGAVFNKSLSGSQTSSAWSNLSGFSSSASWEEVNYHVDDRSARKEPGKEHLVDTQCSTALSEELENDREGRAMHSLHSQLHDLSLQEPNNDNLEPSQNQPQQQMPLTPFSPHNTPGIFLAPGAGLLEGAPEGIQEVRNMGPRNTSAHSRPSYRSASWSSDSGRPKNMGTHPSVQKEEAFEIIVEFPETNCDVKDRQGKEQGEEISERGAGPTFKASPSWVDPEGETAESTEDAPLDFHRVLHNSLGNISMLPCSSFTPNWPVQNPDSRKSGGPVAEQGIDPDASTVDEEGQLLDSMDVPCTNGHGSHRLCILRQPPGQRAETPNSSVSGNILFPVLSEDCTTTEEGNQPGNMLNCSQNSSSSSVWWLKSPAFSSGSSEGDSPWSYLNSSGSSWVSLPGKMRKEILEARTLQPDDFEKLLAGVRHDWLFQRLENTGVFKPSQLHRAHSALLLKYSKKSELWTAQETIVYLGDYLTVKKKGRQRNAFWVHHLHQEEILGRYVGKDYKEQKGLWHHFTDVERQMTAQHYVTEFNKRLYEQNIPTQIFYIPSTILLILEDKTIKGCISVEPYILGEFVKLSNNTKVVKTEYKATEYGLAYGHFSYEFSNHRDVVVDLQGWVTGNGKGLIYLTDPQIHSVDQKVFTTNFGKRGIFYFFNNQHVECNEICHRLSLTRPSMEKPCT
- PROTOCOL: IL8 secretion in HEK293 cells (IL8 ELISA) as indicator of ALPK1 activation
- EXPERIMENTAL_CONDITIONS: without FBS, serial dilutions, 4 hours

{"COMPOUND": "CC(=O)OC[C@@H](OC(C)=O)C1O[C@@H](OP(=O)(O)OP(=O)(O)OCC2(F)O[C@@H](n3cnc4c(N)ncnc43)C3OC(C)(C)OC32)C(OC(C)=O)C(OC(C)=O)[C@@H]1OC(C)=O (single isomer, unassigned) [Compound 19]", "IL8 secretion in HEK293 cells": "activate IL8 secretion"}
{"COMPOUND": "CC(=O)OC[C@@H](OC(C)=O)[C@H]1O[C@@H](OP(=O)(O)OP(=O)(O)OC[C@H]2O[C@@H](n3cnc4c(N)ncnc43)[C@H](O)[C@@H]2F)[C@@H](OC(C)=O)[C@@H](OC(C)=O)[C@@H]1OC(C)=O [Compound 1]", "IL8 secretion in HEK293 cells": "activate IL8 secretion"}
